Target: hCES1A (Homo sapiens)
Sequence (P23141 18-567): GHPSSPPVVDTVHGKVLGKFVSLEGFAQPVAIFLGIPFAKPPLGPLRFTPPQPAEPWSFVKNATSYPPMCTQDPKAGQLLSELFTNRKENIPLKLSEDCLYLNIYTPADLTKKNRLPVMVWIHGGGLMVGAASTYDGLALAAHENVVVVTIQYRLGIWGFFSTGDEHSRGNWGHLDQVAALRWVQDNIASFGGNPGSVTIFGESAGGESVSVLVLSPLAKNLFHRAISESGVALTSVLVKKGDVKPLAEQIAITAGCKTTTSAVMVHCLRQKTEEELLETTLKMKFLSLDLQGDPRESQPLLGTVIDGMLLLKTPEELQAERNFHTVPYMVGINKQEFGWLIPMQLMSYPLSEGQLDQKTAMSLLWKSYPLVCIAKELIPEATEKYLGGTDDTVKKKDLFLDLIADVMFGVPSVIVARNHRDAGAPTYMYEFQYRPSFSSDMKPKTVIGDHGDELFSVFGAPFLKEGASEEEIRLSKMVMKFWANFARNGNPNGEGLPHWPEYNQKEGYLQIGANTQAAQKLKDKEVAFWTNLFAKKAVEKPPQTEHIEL
Experiment: Inhibition assay on hCES1A (bioluminogenic substrate NLMe)
Format: biochemical
Conditions: ratio of IC50 at 3 min to IC50 at 33 min
Kindly supply the reported hCES1A IC50 Fold Increase values for the records listed here.
Answers are plain numbers.

Example entries and their recorded answers appear below.
1) O=C(c1ccccc1Cl)C(F)(F)F
5.0
2) O=C(c1cccc(Cl)c1)C(F)(F)F
13.6
3) O=C(c1ccc(Cl)c(Cl)c1)C(F)(F)F
4.2
4) O=C(c1cc(Cl)c(Cl)c(Cl)c1)C(F)(F)F
10.7
5) O=C(c1ccc(Br)cc1)C(F)(F)F
7.7

Attention now turns to another entry.
### Prompt Fill in: hCES1A IC50 Fold Increase of O=C(c1ccc(I)cc1)C(F)(F)F is ___
### Response 6.1
